Values from ChEMBL document CHEMBL4359842

assay: Drug level in APPswe/PS1dE9 double mutant-transgenic mouse brain at 30 mg/kg, ip administered as single dose measured after 0.5 hrs by LC-MS/MS analysis; type: ADME, organism-based; settings: read-out: Drug uptake
quantityName: concentration at 0.5 h (ng/g)

# cpdSmiles, valueMeasured
records = [
    ("O=C1N/C(=N/c2ccccc2Cl)S/C1=C1\\C(=O)Nc2ccc(F)cc21", 51.4),
]

====

target: Mitogen-activated protein kinase 10 (Homo sapiens); assay: Inhibition of recombinant human full-length JNK3 at 10 uM using ATF2 as substrate measured after 40 mins in presence of [gamma33P]ATP by scintillation counting analysis relative to control
Sequence (P53779 whole entry): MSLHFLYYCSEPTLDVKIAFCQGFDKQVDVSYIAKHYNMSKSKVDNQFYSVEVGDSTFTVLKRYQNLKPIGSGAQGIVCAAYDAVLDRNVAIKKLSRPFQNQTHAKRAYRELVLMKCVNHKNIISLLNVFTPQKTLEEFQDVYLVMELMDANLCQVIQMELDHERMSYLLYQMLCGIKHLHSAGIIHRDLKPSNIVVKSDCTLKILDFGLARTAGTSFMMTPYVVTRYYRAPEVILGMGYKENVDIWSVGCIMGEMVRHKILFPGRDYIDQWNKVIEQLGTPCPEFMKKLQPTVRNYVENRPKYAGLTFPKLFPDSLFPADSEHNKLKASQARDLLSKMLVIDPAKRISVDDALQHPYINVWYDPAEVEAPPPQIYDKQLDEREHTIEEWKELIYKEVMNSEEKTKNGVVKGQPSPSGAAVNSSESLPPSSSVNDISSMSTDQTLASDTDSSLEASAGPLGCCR
In this section we review reported inhibition values for a set of molecules.

# cpdSmiles, targetEntity, unitString, inhibition
rows = [
    ("Cc1cccc(/N=C2/NC(=O)/C(=C3/C(=O)Nc4ccccc43)S2)c1C", "Mitogen-activated protein kinase 10 (Homo sapiens)", "%", 84),
    ("Cc1ccc2c(c1)/C(=C1/S/C(=N\\c3ccc(F)cc3)NC1=O)C(=O)N2", "Mitogen-activated protein kinase 10 (Homo sapiens)", "%", 20),
    ("O=C1NC(=O)/C(=C2/C(=O)Nc3ccccc32)S1", "Mitogen-activated protein kinase 10 (Homo sapiens)", "%", 68),
    ("O=C1N/C(=N/c2ccc(Br)cc2)S/C1=C1\\C(=O)Nc2ccc(Br)cc21", "Mitogen-activated protein kinase 10 (Homo sapiens)", "%", 47),
    ("O=C1Nc2ccccc2N/C1=C\\C(=O)c1ccc(Br)cc1", "Mitogen-activated protein kinase 10 (Homo sapiens)", "%", 12),
    ("O=C1N/C(=N/c2ccc(Br)cc2)S/C1=C1\\C(=O)Nc2ccccc21", "Mitogen-activated protein kinase 10 (Homo sapiens)", "%", 44),
    ("O=C1N/C(=N/c2ccccc2Cl)S/C1=C1\\C(=O)Nc2ccc(F)cc21", "Mitogen-activated protein kinase 10 (Homo sapiens)", "%", 99),
    ("O=C1Oc2ccccc2N/C1=C\\C(=O)c1ccc(Cl)cc1", "Mitogen-activated protein kinase 10 (Homo sapiens)", "%", 20),
    ("O=C1N/C(=N/c2cccc(C(F)(F)F)c2)S/C1=C1\\C(=O)Nc2ccc(I)cc21", "Mitogen-activated protein kinase 10 (Homo sapiens)", "%", 37),
    ("O=C1Nc2ccccc2N/C1=C\\C(=O)c1cccs1", "Mitogen-activated protein kinase 10 (Homo sapiens)", "%", 47),
    ("CCc1cccc2c1NC(=O)/C2=C1\\S/C(=N\\c2cccc(Cl)c2)NC1=O", "Mitogen-activated protein kinase 10 (Homo sapiens)", "%", 10),
]
